# pIC50 measurements, system: dipeptidylpeptidase IV (Rattus norvegicus)
# Sequence (P14740 whole entry): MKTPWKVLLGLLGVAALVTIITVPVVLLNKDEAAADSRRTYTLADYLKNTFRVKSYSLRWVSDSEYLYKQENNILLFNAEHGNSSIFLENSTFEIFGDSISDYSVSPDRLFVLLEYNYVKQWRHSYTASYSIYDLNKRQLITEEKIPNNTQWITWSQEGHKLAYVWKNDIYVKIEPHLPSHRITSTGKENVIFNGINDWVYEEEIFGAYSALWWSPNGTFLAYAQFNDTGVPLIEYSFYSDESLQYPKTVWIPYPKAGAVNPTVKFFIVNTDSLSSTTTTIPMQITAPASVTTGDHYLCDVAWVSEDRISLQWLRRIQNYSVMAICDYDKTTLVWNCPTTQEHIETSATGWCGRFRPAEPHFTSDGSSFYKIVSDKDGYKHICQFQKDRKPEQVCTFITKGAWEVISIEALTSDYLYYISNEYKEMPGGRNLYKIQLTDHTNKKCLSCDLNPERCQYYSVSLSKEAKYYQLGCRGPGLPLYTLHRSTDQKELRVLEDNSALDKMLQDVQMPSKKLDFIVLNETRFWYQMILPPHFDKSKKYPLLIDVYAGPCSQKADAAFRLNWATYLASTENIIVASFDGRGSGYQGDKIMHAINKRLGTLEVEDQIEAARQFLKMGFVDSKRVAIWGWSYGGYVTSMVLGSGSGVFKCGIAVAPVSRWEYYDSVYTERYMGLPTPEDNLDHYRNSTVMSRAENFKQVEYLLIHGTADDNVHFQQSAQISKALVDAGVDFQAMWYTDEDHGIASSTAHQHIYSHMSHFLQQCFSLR
pIC50: −log10 of the molar value.

| COMPOUND | pIC50 |
| --- | --- |
| N[C@H]1CCN(P(N)(=O)NS(=O)(=O)O)C1=O (single isomer, unassigned) [Compound 20] | 5.74 |
| N[C@H]1CCN(P(N)(=O)NS(=O)(=O)O)C1=O (single isomer, unassigned) [Compound 21] | 7.82 |

Taken from patent US6579989B1.
